Measured values drawn from ChEMBL document CHEMBL5291721 for this set.

Listed molecules paired with reported AC50
target: Gamma-aminobutyric acid receptor subunit alpha-1 (Rattus norvegicus, UniProt P62813); further: assay procedure not described here
Sequence (P62813 whole entry): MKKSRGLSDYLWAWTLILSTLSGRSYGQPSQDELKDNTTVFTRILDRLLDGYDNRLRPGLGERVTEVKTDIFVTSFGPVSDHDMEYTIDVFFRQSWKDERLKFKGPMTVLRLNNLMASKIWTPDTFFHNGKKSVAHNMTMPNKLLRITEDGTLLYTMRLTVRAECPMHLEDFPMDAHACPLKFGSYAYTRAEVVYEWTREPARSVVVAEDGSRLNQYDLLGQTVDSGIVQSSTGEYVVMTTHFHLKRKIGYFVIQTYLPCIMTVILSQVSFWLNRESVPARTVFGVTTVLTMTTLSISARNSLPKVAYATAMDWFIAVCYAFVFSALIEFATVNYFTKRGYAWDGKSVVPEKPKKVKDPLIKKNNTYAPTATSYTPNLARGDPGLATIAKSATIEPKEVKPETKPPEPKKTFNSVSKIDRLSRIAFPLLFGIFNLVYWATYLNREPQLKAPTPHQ

[
  {
    "molecule": "NCc1ccccc1CC(=O)N[C@@H]1C(=O)N2C(C(=O)O)=C(CSc3nnnn3CC(=O)O)CS[C@H]12 [CEFORANIDE]",
    "targetSystem": "Gamma-aminobutyric acid receptor subunit alpha-1 (Rattus norvegicus, UniProt P62813)",
    "valueKind": "AC50",
    "reportedResult": "> 30 µM"
  },
  {
    "molecule": "CC[C@@]1(O)C[C@H](O[C@H]2C[C@H](N(C)C)[C@H](O[C@H]3C[C@H](O)[C@H](O[C@H]4CCC(=O)[C@H](C)O4)[C@H](C)O3)[C@H](C)O2)c2c(cc3c(c2O)C(=O)c2c(O)cccc2C3=O)[C@H]1C(=O)OC [ACLARUBICIN]",
    "targetSystem": "Gamma-aminobutyric acid receptor subunit alpha-1 (Rattus norvegicus, UniProt P62813)",
    "valueKind": "AC50",
    "reportedResult": "> 30 µM"
  },
  {
    "molecule": "CCC1(c2cccc(O)c2)CCCCN(C)C1 (configuration not stated) [MEPTAZINOL]",
    "targetSystem": "Gamma-aminobutyric acid receptor subunit alpha-1 (Rattus norvegicus, UniProt P62813)",
    "valueKind": "AC50",
    "reportedResult": "> 30 µM"
  },
  {
    "molecule": "CCOC(=O)C(c1c(O)c2ccccc2oc1=O)c1c(O)c2ccccc2oc1=O [ETHYL BISCOUMACETATE]",
    "targetSystem": "Gamma-aminobutyric acid receptor subunit alpha-1 (Rattus norvegicus, UniProt P62813)",
    "valueKind": "AC50",
    "reportedResult": "> 30 µM"
  },
  {
    "molecule": "C[C@@H]1C[C@H]2[C@@H]3C[C@H](F)C4=CC(=O)C(Cl)=C[C@]4(C)[C@@]3(F)[C@@H](O)C[C@]2(C)[C@@]1(O)C(=O)CO [HALOMETASONE]",
    "targetSystem": "Gamma-aminobutyric acid receptor subunit alpha-1 (Rattus norvegicus, UniProt P62813)",
    "valueKind": "AC50",
    "reportedResult": "> 30 µM"
  },
  {
    "molecule": "CN1C(=O)N(C)C2C1N(C)C(=O)N2C (configuration not stated) [MEBICAR]",
    "targetSystem": "Gamma-aminobutyric acid receptor subunit alpha-1 (Rattus norvegicus, UniProt P62813)",
    "valueKind": "AC50",
    "reportedResult": "> 30 µM"
  }
]

Now take the following molecule into account.
Entry Nc1nc2ccc(OC(F)(F)F)cc2s1 [RILUZOLE] ; assay system Gamma-aminobutyric acid receptor subunit alpha-1 (Rattus norvegicus, UniProt P62813); AC50 recorded at > 30 µM

* * *

biological target: 5-hydroxytryptamine receptor 2B (Homo sapiens); type: functional, cell-based; further: assay procedure not described here
Sequence (P41595 whole entry): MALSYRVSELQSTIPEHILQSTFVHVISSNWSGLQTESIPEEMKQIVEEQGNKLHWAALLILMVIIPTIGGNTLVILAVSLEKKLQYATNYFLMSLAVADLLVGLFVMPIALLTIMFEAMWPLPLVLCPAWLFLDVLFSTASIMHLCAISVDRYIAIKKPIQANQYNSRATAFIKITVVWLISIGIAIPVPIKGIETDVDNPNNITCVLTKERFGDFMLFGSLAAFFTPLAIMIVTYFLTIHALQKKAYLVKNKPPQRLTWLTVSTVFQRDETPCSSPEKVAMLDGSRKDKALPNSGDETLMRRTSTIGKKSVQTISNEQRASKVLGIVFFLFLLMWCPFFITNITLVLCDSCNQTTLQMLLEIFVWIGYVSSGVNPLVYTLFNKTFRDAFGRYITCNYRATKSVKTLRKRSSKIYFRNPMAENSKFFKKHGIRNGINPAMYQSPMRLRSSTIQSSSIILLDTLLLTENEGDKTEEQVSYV
Listed compounds paired with reported AC50

Completed entries (count: 4):
[
  {
    "compound": "C[N+](C)(C)CC(=O)O [BETAINE]",
    "targetSystem": "5-hydroxytryptamine receptor 2B (Homo sapiens)",
    "AC50": "> 30 µM"
  },
  {
    "compound": "C[C@H]1O[C@H](O[C@H]2[C@H](O)[C@@H](O)[C@@H](O[C@H]3[C@H](O)[C@@H](O)C(O)O[C@@H]3CO)O[C@@H]2CO)[C@H](O)[C@@H](O)[C@@H]1N[C@H]1C=C(CO)[C@@H](O)[C@H](O)[C@H]1O (stereo not given in full) [ACARBOSE]",
    "targetSystem": "5-hydroxytryptamine receptor 2B (Homo sapiens)",
    "AC50": "> 30 µM"
  },
  {
    "compound": "COc1c(C)c2c(c(O)c1C/C=C(\\C)CCC(=O)OCCN1CCOCC1)C(=O)OC2 [MYCOPHENOLATE MOFETIL]",
    "targetSystem": "5-hydroxytryptamine receptor 2B (Homo sapiens)",
    "AC50": "> 30 µM"
  },
  {
    "compound": "CCCCCOC(=O)Nc1nc(=O)n([C@@H]2O[C@H](C)[C@@H](O)[C@H]2O)cc1F [CAPECITABINE]",
    "targetSystem": "5-hydroxytryptamine receptor 2B (Homo sapiens)",
    "AC50": "> 30 µM"
  }
]

Now take the following compound into account.
Sure, the documented AC50 for NC1=NC(=O)C(c2ccccc2)O1 (stereo not given) [PEMOLINE] is > 10 µM
